# Test system: U2OS
# experiment: cell viability relative to DMSO; higher = less toxic
# condition-info: 72 h; 1000 nM
measured-metric: cell viability (%)
Response body: numeric value in %, unit text excluded.

May I ask what cell viability has been recorded for CCC(NC(C)C)C(O)c1ccc(O)c(O)c1 (stereo not given) [isoetharine] ?
95.4

Also check CNCC(O)c1ccc(O)c(O)c1 (racemic) [DL-Adrenaline]
99.9

Also CN(C(=O)c1c(O)c2ccccc2n(C)c1=O)c1ccccc1 [roquinimex] ?
93.8

Same lookup for Cc1cn([C@H]2C=C[C@@H](CO)O2)c(=O)[nH]c1=O [stavudine] , please.
96.7

Query Cc1ncc(CO)c(C=O)c1O [pyridoxal] next
103

The measurements presented in this section are drawn from the supplement of paper PMC13380429.
